# Test system: SW 954
# procedure-details: Antiproliferative activity against human SW 954 cells assessed as inhibition of cell viability measured for 6 to 7 days by cell titer glo assay
# Type: functional, cell-based
metric: EC50

Sure, the documented EC50 for `CCn1cc(-c2ccnc3[nH]c(-c4cccc(CN(C)C)c4)cc23)c(-c2ccc(NC(=O)N(C)C)cc2)n1` is 11 nM

====

# Test system: DB
# procedure-details: Antiproliferative activity against human DB cells assessed as inhibition of cell viability measured for 6 to 7 days by cell titer glo assay
# Assay type: functional, cell-based
metric: pEC50
API: returns pEC50 as number; meaning -log10 of concentration in mol/L.

Sure, the documented pEC50 for `CCn1cc(-c2ccnc3[nH]c(-c4cccc(CN(C)C)c4)cc23)c(-c2ccc(NC(=O)N(C)C)cc2)n1` is 7.96

====

# procedure-details: Antiproliferative activity against HUVEC cells assessed as reduction in cell viability measured after 6 days by cell titer glo assay
# Assay type: toxicity, cell-based
# assay-context: human
metric: EC50 at 6 days (µM)
Report only the number, with the unit µM understood.

Sure, the documented EC50 at 6 days for CCn1cc(-c2ccnc3[nH]c(-c4cccc(CN(C)C)c4)cc23)c(-c2ccc(NC(=O)N(C)C)cc2)n1 [GSK-1070916] is 3.9

====

# System: SEM cells
# procedure-details: Antiproliferative activity against human SEM cells assessed as inhibition of cell viability measured for 6 to 7 days by cell titer glo assay
# Type: functional, cell-based
metric: pEC50
API: returns pEC50 as number; meaning -log10 of concentration in mol/L.

Sure, the documented pEC50 for CCn1cc(-c2ccnc3[nH]c(-c4cccc(CN(C)C)c4)cc23)c(-c2ccc(NC(=O)N(C)C)cc2)n1 [GSK-1070916] is 8.52

====

# System: 786-0
# procedure-details: Antiproliferative activity against human 786-0 cells assessed as inhibition of cell viability measured for 6 to 7 days by cell titer glo assay
# Type: functional, cell-based
metric: EC50 (nM)
Report only the number, with the unit nM understood.

Sure, the documented EC50 for `CCn1cc(-c2ccnc3[nH]c(-c4cccc(CN(C)C)c4)cc23)c(-c2ccc(NC(=O)N(C)C)cc2)n1` is 57

====

# System: CMK
# procedure-details: Antiproliferative activity against human CMK cells assessed as inhibition of cell viability measured for 6 to 7 days by cell titer glo assay
# Type: functional, cell-based
metric: pEC50
API: returns pEC50 as number; meaning -log10 of concentration in mol/L.

Sure, the documented pEC50 for `CCn1cc(-c2ccnc3[nH]c(-c4cccc(CN(C)C)c4)cc23)c(-c2ccc(NC(=O)N(C)C)cc2)n1` is 7.57

====

# System: NOMO-1
# procedure-details: Antiproliferative activity against human NOMO-1 cells assessed as inhibition of cell viability measured for 6 to 7 days by cell titer glo assay
# Format: functional, cell-based
metric: pEC50
API: returns pEC50 as number; meaning -log10 of concentration in mol/L.

Sure, the documented pEC50 for `CCn1cc(-c2ccnc3[nH]c(-c4cccc(CN(C)C)c4)cc23)c(-c2ccc(NC(=O)N(C)C)cc2)n1` is 8.70

====

# Tested on: KU812 cell line
# procedure-details: Antiproliferative activity against human KU812 cell line assessed as inhibition of cell viability measured for 6 to 7 days by cell titer glo assay
# Assay type: functional, cell-based
metric: pEC50
API: returns pEC50 as number; meaning -log10 of concentration in mol/L.

Sure, the documented pEC50 for `CCn1cc(-c2ccnc3[nH]c(-c4cccc(CN(C)C)c4)cc23)c(-c2ccc(NC(=O)N(C)C)cc2)n1` is 8.10
